Test system: anti-GNA33 mAb 25
Test: Peptide binding assay with cellulose-bound spot-synthesised peptides
Parameters: species or system mouse
Conditions: overlapping decapeptides from loop 4 of PorA P1.2 (strain 2996); mAb 25 6 μg/ml
Procedure: Peptide spot synthesis was carried out on amino-PEG-cellulose membranes (ABIMED, Langerfeld, Germany) using a model ASP 222 automated spot synthesizer (ABIMED) and diisopropylcarbodiimide (DIC)/N-hydroxybenzotriazole (HOBt) activation (Frank and Overwin, Methods Mol. Biol. (1996) 66:149-169). […] Cellulose-bound peptides were soaked in ethanol to prevent hydrophobic interactions between the peptides. […] Quantitative evaluation of the signal was obtained using a Umax Speedy II 2200 optical scanner.
Ends that are not written are not given here.
Checkbox rule: Dye Units (binding of anti-GNA33 mAb 25) lower than 4 Dye Units = y; Dye Units (binding of anti-GNA33 mAb 25) not lower than 4 Dye Units = n.

# sequence entry, assayed system, label
rows = [
    ("PAHFVQQTPQ (Ac-PAHFVQQTPQ)", "anti-GNA33 mAb 25", "n"),
    ("FVQQTPQSQP (Ac-FVQQTPQSQP)", "anti-GNA33 mAb 25", "n"),
    ("TPQSQPTVP", "anti-GNA33 mAb 25", "y"),
    ("HFVQQTPQSQ (Ac-HFVQQTPQSQ)", "anti-GNA33 mAb 25", "n"),
    ("QTPQSQPTLV (Ac-QTPQSQPTLV)", "anti-GNA33 mAb 25", "y"),
    ("QQTPQSQPTL (Ac-QQTPQSQPTL)", "anti-GNA33 mAb 25", "y"),
    ("TPAHFVQQTP", "anti-GNA33 mAb 25", "n"),
    ("YTPAHFVQQT (Ac-YTPAHFVQQT)", "anti-GNA33 mAb 25", "y"),
    ("AHFVQQTPQS (Ac-AHFVQQTPQS)", "anti-GNA33 mAb 25", "n"),
]

* * *

Tested on: anti-GNA33 mAb 25
Assay: Peptide binding assay with cellulose-bound spot-synthesised peptides
Parameters: species or system mouse
Conditions: overlapping decapeptides from GNA33; mAb 25 6 μg/ml
reported metric: Dye Units (binding of anti-GNA33 mAb 25) (Dye Units)

# sequence entry, assayed system, reported metric, reported
data = [
    ("AQAFQTPVHS", "anti-GNA33 mAb 25", "Dye Units (binding of anti-GNA33 mAb 25)", 30),
    ("TPVHSFQAKQ", "anti-GNA33 mAb 25", "Dye Units (binding of anti-GNA33 mAb 25)", 2),
    ("DVSAQAFQTP", "anti-GNA33 mAb 25", "Dye Units (binding of anti-GNA33 mAb 25)", 23),
    ("QDVSAQAFQT", "anti-GNA33 mAb 25", "Dye Units (binding of anti-GNA33 mAb 25)", 0),
    ("QTPVHSFQAK", "anti-GNA33 mAb 25", "Dye Units (binding of anti-GNA33 mAb 25)", 19),
    ("QAFQTPVHSF", "anti-GNA33 mAb 25", "Dye Units (binding of anti-GNA33 mAb 25)", 30),
    ("SAQAFQTPVH", "anti-GNA33 mAb 25", "Dye Units (binding of anti-GNA33 mAb 25)", 29),
    ("VSAQAFQTPV", "anti-GNA33 mAb 25", "Dye Units (binding of anti-GNA33 mAb 25)", 27),
    ("AFQTPVHSFQ", "anti-GNA33 mAb 25", "Dye Units (binding of anti-GNA33 mAb 25)", 24),
    ("FQTPVHSFQA", "anti-GNA33 mAb 25", "Dye Units (binding of anti-GNA33 mAb 25)", 22),
]
